Parameter: normalised response. Scope: all listed entries.
Tested on: DU-4475
Experiment: normalised response (% of control), CellTiter-Glo; higher = more viable cells (100 = DMSO, 0 = benzethonium chloride kill control)
Settings: incubation time: 72 h
quantity measured: normalised response

                                    compound  obs_value
 0  CO[C@@]12[C@H](COC(N)=O)C3=C(C(=O)C(C)=C(N)C3=O)N1C[C@@H]1N[C@@H]12 [Mitomycin C] (10 nM)      98.9%
 1  CN(Cc1cnc2nc(N)nc(N)c2n1)c1ccc(C(=O)N[C@@H](CCC(=O)O)C(=O)O)cc1 [Methotrexate] (5 nM)       105%
 2  Cc1nc(C(=O)NCC(=O)O)c(O)c2ccc(Oc3ccccc3)cc12 [FG-4592] (1 nM)       103%
 3  O=[N+]([O-])c1ccc2c(c1)S(=O)(=O)C=C2 [Stattic] (50 nM)      99.9%
 4  CCNC(=O)c1noc(-c2cc(C(C)C)c(O)cc2O)c1-c1ccc(CN2CCOCC2)cc1 [NVP-AUY922] (1 nM)       105%
 5  CC(C)n1cnc2c(NCCc3ccc(O)cc3)nc(-c3csc4ccccc34)nc21 [StemRegenin 1] (1000 nM)       103%
 6  CO[C@@H]1[C@H](N(C)C(=O)c2ccccc2)C[C@H]2O[C@]1(C)n1c3ccccc3c3c4c(c5c6ccccc6n2c5c31)C(=O)NC4 [Midostaurin] (1 nM)        94%
 7  C=CCn1c(=O)c2cnc(Nc3ccc(N4CCN(C)CC4)cc3)nc2n1-c1cccc(C(C)(C)O)n1 [MK1775] (10 nM)      93.2%
 8  CO[C@@]12[C@H](COC(N)=O)C3=C(C(=O)C(C)=C(N)C3=O)N1C[C@@H]1N[C@@H]12 [Mitomycin C] (1 nM)      95.1%
 9  CN[C@@H](C)C(=O)N[C@H]1CN(C(=O)CC(C)C)CC[C@H]2CC[C@@H](C(=O)NC(c3ccccc3)c3ccccc3)N2C1=O [AT-406] (1000 nM)       101%
10  Cc1nc(C(=O)NCC(=O)O)c(O)c2ccc(Oc3ccccc3)cc12 [FG-4592] (10 nM)       101%
11  CCn1c(C(=O)N(C2CC2)C2CC2)cc2c3c(ncn3C)c(Nc3cc(C)n(C)n3)nc21 (10 nM)      96.9%
12  C=CCN(/C=C1/C(=O)O[C@H](COC)[C@@]2(C)C1=C(O)C(=O)C1=C2[C@H](OC(C)=O)C[C@]2(C)C(=O)CC[C@@H]12)CC=C [Sonolisib] (10 nM)       106%
13  CC1(COc2ccc3c(c2)ncn3-c2ccc3cccc(N4CCC(N)CC4)c3n2)COC1 [Crenolanib] (1000 nM)      96.2%

====

System: MDA-MB-231
Assay: drug sensitivity score (DSS), CellTiter-Blue viability (DSS (AUC-based score)); higher = stronger viability inhibition; extreme values may be limits of the assay
Conditions: incubation time: 72 h
quantity measured: drug sensitivity score

                                   compound  obs_value
0  CN(Cc1cnc2nc(N)nc(N)c2n1)c1ccc(C(=O)N[C@@H](CCC(=O)O)C(=O)O)cc1 [Methotrexate]          0
1  CCNC(=O)CCC/C=C\C[C@@H]1[C@@H](/C=C/[C@@H](O)CCc2ccccc2)[C@H](O)C[C@@H]1O [Bimatoprost]          0
2  CNC(=O)c1ccccc1Sc1ccc2c(/C=C/c3ccccn3)n[nH]c2c1 [Axitinib]       2.62
3  CC(O)(CS(=O)(=O)c1ccc(F)cc1)C(=O)Nc1ccc(C#N)c(C(F)(F)F)c1 (stereo not drawn) [Bicalutamide]          0
4  CCNC(=O)c1noc(-c2cc(C(C)C)c(O)cc2O)c1-c1ccc(CN2CCOCC2)cc1 [NVP-AUY922]       17.3
5  CO[C@@H]1[C@H](N(C)C(=O)c2ccccc2)C[C@H]2O[C@]1(C)n1c3ccccc3c3c4c(c5c6ccccc6n2c5c31)C(=O)NC4 [Midostaurin]       9.28
6  CO[C@@]12[C@H](COC(N)=O)C3=C(C(=O)C(C)=C(N)C3=O)N1C[C@@H]1N[C@@H]12 [Mitomycin C]       5.97
7  COc1cc(Nc2c(C#N)cnc3cc(OCCCN4CCN(C)CC4)c(OC)cc23)c(Cl)cc1Cl [Bosutinib]       6.93

====

Catalogue of normalised viability readings, one per entry.
System: BT-474
Assay: normalised viability (% of control), CellTiter-Blue; higher = more viable cells (about 100 = DMSO control)
Conditions: 10 nM; incubation time: 72 h

compound	normalised viability (%)
C=CCN(/C=C1/C(=O)O[C@H](COC)[C@@]2(C)C1=C(O)C(=O)C1=C2[C@H](OC(C)=O)C[C@]2(C)C(=O)CC[C@@H]12)CC=C	118
CC(C)(C)NC(=O)[C@H]1CC[C@H]2[C@@H]3CC[C@H]4NC(=O)C=C[C@]4(C)[C@H]3CC[C@]12C [Finasteride]	125
COc1ccc(S(=O)(=O)Nc2cccnc2Nc2ccc(O)cc2)cc1	112
CN(Cc1cnc2nc(N)nc(N)c2n1)c1ccc(C(=O)N[C@@H](CCC(=O)O)C(=O)O)cc1 [Methotrexate]	115
CC1(C)CCC(c2ccc(Cl)cc2)=C(CN2CCN(c3ccc(C(=O)NS(=O)(=O)c4ccc(N[C@H](CCN5CCOCC5)CSc5ccccc5)c(S(=O)(=O)C(F)(F)F)c4)cc3)CC2)C1	96.3
CNC(=O)c1ccccc1Sc1ccc2c(/C=C/c3ccccn3)n[nH]c2c1	112

====

System: Hs578T
Test: normalised response (% of control), CellTox Green; higher = less cell death (100 = DMSO, 0 = benzethonium chloride kill control)
Conditions: incubation time: 72 h
Overview of reported normalised response across a group of compounds:

compound	reading unit	normalised response
CN(Cc1cnc2nc(N)nc(N)c2n1)c1ccc(C(=O)N[C@@H](CCC(=O)O)C(=O)O)cc1 [Methotrexate] (5000 nM)	%	102
O=C(O)CNC(=O)c1c(O)c2ccccc2n(Cc2ccccc2)c1=O [IOX-2] (500 nM)	%	99.3
Cc1cc(Nc2nc(N[C@@H](C)c3ncc(F)cn3)ncc2Cl)[nH]n1 [AZD1480] (10 nM)	%	109
Nc1ccn([C@@H]2O[C@H](CO)[C@@H](O)C2(F)F)c(=O)n1 [Gemcitabine] (1000 nM)	%	123
COc1cc(Nc2c(C#N)cnc3cc(OCCCN4CCN(C)CC4)c(OC)cc23)c(Cl)cc1Cl [Bosutinib] (10000 nM)	%	72.5
CC(C)C[C@H](NC(=O)[C@@H](COC(C)(C)C)NC(=O)[C@H](Cc1ccc(O)cc1)NC(=O)[C@H](CO)NC(=O)[C@H](Cc1c[nH]c2ccccc12)NC(=O)[C@H](Cc1cnc[nH]1)NC(=O)[C@@H]1CCC(=O)N1)C(=O)N[C@@H](CCCNC(=N)N)C(=O)N1CCC[C@H]1C(=O)NNC(N)=O [Goserelin] (1000 nM)	%	102

====

System: DU-4475
Experiment: normalised viability (% of control), CellTiter-Blue; higher = more viable cells (about 100 = DMSO control)
Conditions: incubation time: 72 h
Entries and their measured normalised viability follow.
quantity measured: normalised viability (%)

>>> print(df.to_string())
                                   compound  measured_on     quantity_measured  obs_value
0  COc1ccc(S(=O)(=O)Nc2cccnc2Nc2ccc(O)cc2)cc1 [ABT-751] (10000 nM)      DU-4475  normalised viability        6.9
1  CO[C@@H]1[C@H](N(C)C(=O)c2ccccc2)C[C@H]2O[C@]1(C)n1c3ccccc3c3c4c(c5c6ccccc6n2c5c31)C(=O)NC4 [Midostaurin] (10000 nM)      DU-4475  normalised viability       3.76
2  CC(=O)[C@]1(O)Cc2c(O)c3c(c(O)c2[C@@H](O[C@H]2C[C@H](N)[C@H](O)[C@H](C)O2)C1)C(=O)c1ccccc1C3=O [Idarubicin] (1000 nM)      DU-4475  normalised viability       0.02
3  Cc1cc(Nc2nc(N[C@@H](C)c3ncc(F)cn3)ncc2Cl)[nH]n1 [AZD1480] (1000 nM)      DU-4475  normalised viability       74.7
4  CNC(=O)c1ccccc1Sc1ccc2c(/C=C/c3ccccn3)n[nH]c2c1 [Axitinib] (10000 nM)      DU-4475  normalised viability       21.1

====

Quick reference: EC50, CellTox Green of the listed items.
Test system: BT-474
Conditions: 72 h

smiles code	rel	EC50, CellTox Green, nM
CC(C)C[C@H](NC(=O)[C@@H](COC(C)(C)C)NC(=O)[C@H](Cc1ccc(O)cc1)NC(=O)[C@H](CO)NC(=O)[C@H](Cc1c[nH]c2ccccc12)NC(=O)[C@H](Cc1cnc[nH]1)NC(=O)[C@@H]1CCC(=O)N1)C(=O)N[C@@H](CCCNC(=N)N)C(=O)N1CCC[C@H]1C(=O)NNC(N)=O	>	10000
CN[C@@H](C)C(=O)N[C@H]1CN(C(=O)CC(C)C)CC[C@H]2CC[C@@H](C(=O)NC(c3ccccc3)c3ccccc3)N2C1=O	>	10000
CC(C)n1cnc2c(NCCc3ccc(O)cc3)nc(-c3csc4ccccc34)nc21	>	10000
CC(=O)[C@]1(O)Cc2c(O)c3c(c(O)c2[C@@H](O[C@H]2C[C@H](N)[C@H](O)[C@H](C)O2)C1)C(=O)c1ccccc1C3=O	=	53.5
O=[N+]([O-])c1ccc2c(c1)S(=O)(=O)C=C2	=	1890
